human O-GlcNAcase (Homo sapiens (Human), UniProt O60502): reported Ki for various molecules.
Sequence (O60502 whole entry): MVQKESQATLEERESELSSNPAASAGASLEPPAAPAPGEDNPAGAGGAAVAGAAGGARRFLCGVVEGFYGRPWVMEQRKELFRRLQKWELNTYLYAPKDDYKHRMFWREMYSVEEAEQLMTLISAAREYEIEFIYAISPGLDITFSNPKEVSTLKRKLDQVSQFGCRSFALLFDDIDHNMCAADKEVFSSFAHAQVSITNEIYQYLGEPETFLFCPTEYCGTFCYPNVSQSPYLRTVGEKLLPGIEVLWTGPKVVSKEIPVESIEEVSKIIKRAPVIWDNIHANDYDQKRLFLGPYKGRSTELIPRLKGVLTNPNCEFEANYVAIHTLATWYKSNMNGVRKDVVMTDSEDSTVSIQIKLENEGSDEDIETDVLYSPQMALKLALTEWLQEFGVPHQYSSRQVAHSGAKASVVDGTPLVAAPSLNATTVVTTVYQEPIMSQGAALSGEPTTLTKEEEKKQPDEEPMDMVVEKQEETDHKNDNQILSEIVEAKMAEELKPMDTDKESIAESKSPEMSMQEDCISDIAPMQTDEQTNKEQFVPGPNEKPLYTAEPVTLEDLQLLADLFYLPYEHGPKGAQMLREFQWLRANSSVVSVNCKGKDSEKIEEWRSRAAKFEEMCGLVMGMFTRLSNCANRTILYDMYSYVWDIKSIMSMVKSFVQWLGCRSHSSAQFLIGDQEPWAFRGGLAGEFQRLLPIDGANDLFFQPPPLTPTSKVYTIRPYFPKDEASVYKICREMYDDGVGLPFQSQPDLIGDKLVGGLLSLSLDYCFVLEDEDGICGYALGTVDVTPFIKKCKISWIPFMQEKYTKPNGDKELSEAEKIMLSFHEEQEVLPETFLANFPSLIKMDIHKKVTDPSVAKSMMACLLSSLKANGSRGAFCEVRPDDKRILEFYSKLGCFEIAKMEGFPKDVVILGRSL
Output should be the measured figure followed by the unit it is expressed in.

Answered cases to consult:
CC(=O)Nc1ncc(CN2CCC(=Cc3ccc(N)nc3)CC2)s1 0.635 nM
CC(=O)Nc1ncc(CN2CCC(=Cc3ccc(C(N)=O)cc3)CC2)s1 0.294 nM
CC(=O)Nc1ncc(CN2CCC(=Cc3ccc(F)cc3)CC2)s1 2.7 nM
CC(=O)Nc1ncc(CN2CC/C(=C/c3ccccc3)C[C@@H]2C)s1 1.04 nM
CNC(=O)c1ccc(C=C2CCN(Cc3cnc(NC(C)=O)s3)CC2)cc1 0.43 nM

Report Ki for every entry below.
1. CC(=O)Nc1ncc(CN2CCC(=Cc3ccc(CCF)cc3)CC2)s1
2. CC(=O)Nc1ncc(CN2CC/C(=C\c3ccccc3)C[C@@H]2C)s1
3. CC(=O)Nc1ncc(CN2CCC(=Cc3ccc4c(c3)OCO4)CC2)s1
4. CCOc1ccc(C=C2CCN(Cc3cnc(NC(C)=O)s3)CC2)cc1
5. CC(=O)Nc1ncc(CN2CCC(=Cc3ccc(-c4ccccc4)cc3)CC2)s1
6. COc1ccc(C=C2CCN(Cc3cnc(NC(C)=O)s3)CC2)cc1O
7. COc1cccc(C=C2CCN(Cc3cnc(NC(C)=O)s3)CC2)c1

### Response
1. 0.411 nM
2. 29.8 nM
3. 1.03 nM
4. 1.45 nM
5. 53.8 nM
6. 1.51 nM
7. 2.93 nM

Report Ki for every entry below.
1. COc1ccc(/C=C2\CCN(Cc3cnc(NC(C)=O)s3)[C@@H](C)C2)cc1
2. COc1ccc(/C=C2/CCN(Cc3cnc(NC(C)=O)s3)[C@H](C)C2)cc1
3. C=CCOc1ccc(C=C2CCN(Cc3cnc(NC(C)=O)s3)CC2)cc1

### Response
1: 9.61 nM; 2: 71.2 nM; 3: 6.11 nM

Report Ki for every entry below.
1. COc1ccc(/C=C2\CCN(Cc3cnc(NC(C)=O)s3)[C@H](C)C2)cc1
2. CC(=O)Nc1ncc(CN2CCC(=Cc3cn[nH]c3)CC2)s1
3. CC(=O)Nc1ncc(CN2CCC(=Cc3ccc(OC(=O)OC(C)(C)C)cc3)CC2)s1
4. COc1cc(C=C2CCN(Cc3cnc(NC(C)=O)s3)CC2)ccc1O
5. CC(=O)Nc1ncc(CN2CCC(=Cc3cccc(CC(N)=O)c3)CC2)s1
6. CC(=O)Nc1ncc(CN2CCC(=Cc3ccc(OC(F)(F)F)cc3)CC2)s1
7. CC(=O)N(C)c1ncc(CN2CCC(=Cc3ccc(CCF)cc3)CC2)s1
8. CC(=O)Nc1ncc(CN2CCC(=Cc3ccc([N+](=O)[O-])nc3)CC2)s1

### Response
1. 126 nM
2. 0.387 nM
3. 3.53 nM
4. 0.634 nM
5. 0.614 nM
6. 3.15 nM
7. 5.71 nM
8. 1.6 nM

###

- SUBJECT OF TEST: human O-GlcNAcase (Homo sapiens (Human), UniProt O60502)
- MEASUREMENT NOTES: Assay for determination of KI values for inhibition of O-GlcNAcase activity
- Assay type: biochemical
- DETAILS: purified human O-GlcNAcase 0.7 nM; substrate 2 mM 4-Methylumbelliferyl N-acetyl-β-D-glucosaminide; pH 7.0; room temperature; Cheng-Prusoff; read-out: hOGA Ki
METRIC: pKi
Answers are plain numbers, as −log10 of the molar value.

CC(=O)Nc1ncc(CN2CCC(=Cc3ccccc3)CC2)s1 8.76
CC(=O)Nc1ncc(CN2CCC(=Cc3cccc(O)c3)CC2)s1 8.95
CC(=O)Nc1ncc(CN2CCC(=Cc3ccc(OCCF)cc3)CC2)s1 9.20
COc1cccc(C=C2CCN(Cc3cnc(NC(C)=O)s3)CC2)c1OC 8.47
CC(=O)Nc1ncc(CN2CCC(=Cc3ccc4c(c3)OCCO4)CC2)s1 8.75

Report pKi for every entry below.
1. CC(=O)Nc1ncc(CN2CCC(=Cc3ccc(S(=O)(=O)N(C)C)cc3)CC2)s1
2. CC(=O)Nc1ncc(CN2CCC(=Cc3ccc(CCO)cc3)CC2)s1
3. COc1ccc(/C=C2/CCN(Cc3cnc(NC(C)=O)s3)[C@@H](C)C2)cc1
4. COc1ccccc1C=C1CCN(Cc2cnc(NC(C)=O)s2)CC1

### Response
1. 10.02
2. 9.62
3. 9.54
4. 8.61

Report pKi for every entry below.
1. CCc1ccc(C=C2CCN(Cc3cnc(NC(C)=O)s3)CC2)cc1
2. CC(=O)Nc1ncc(CN2CCC(=Cc3ccc4c(c3)CNC4=O)CC2)s1

### Response
1: 9.15; 2: 9.57
